The values you see were collected from paper PMC12980303.

- MEASUREMENT_TARGET: hCB1 receptor (Homo sapiens, UniProt P21554)
- Sequence (P21554 whole entry): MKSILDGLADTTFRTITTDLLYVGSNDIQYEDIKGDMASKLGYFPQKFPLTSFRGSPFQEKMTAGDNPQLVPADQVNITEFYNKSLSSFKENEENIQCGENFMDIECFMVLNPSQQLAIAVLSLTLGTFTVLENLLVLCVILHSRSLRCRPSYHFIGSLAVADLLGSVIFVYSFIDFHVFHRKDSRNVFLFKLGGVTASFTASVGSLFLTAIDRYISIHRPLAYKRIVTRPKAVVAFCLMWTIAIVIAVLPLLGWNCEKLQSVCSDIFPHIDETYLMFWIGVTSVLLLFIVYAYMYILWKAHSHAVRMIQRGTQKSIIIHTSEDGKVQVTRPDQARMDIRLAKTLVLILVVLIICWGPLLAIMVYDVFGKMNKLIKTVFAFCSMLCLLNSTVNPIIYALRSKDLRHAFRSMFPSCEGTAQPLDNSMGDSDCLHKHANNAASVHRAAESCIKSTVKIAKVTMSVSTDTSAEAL
- TEST_DESCRIPTION: competitive [3H]CP‐55940 radioligand binding assay (hCB1 receptor affinity)
- CONDITION_PARAMETERS: [3H]CP‐55940 competition, hCB1 membrane preparations (HEK293‐EBNA), Cheng–Prusoff; 95% CI in brackets; read-out: Ki [nM] (95% CI)
RECORDED_METRIC: Ki (nM)
State just the number; it will be interpreted in nM.

Give Ki for the following compound: CCCCCn1cc(C(=O)c2ccc(CC)c3ccccc23)c2ccccc21 [JWH‐210] 1.43

----------
- MEASUREMENT_TARGET: hCB1 receptor (Homo sapiens)
- TEST_DESCRIPTION: functional [35S]GTPγS hCB1 activation assay
- Format: biochemical
- CONDITION_PARAMETERS: read-out: [35S]‐GTPγS assay Emax [%] (95% CI)
- Method: Receptor assays were performed on three different days and each concentration was tested in duplicate.
Overview of recorded Emax for various compounds
Give your result in % as a bare value.

Answered cases to consult:
• C=CCCCn1nc(C(=O)NC(C(=O)OC)C(C)(C)C)c2ccccc21 (stereo not drawn) = 114
• COC(=O)C(NC(=O)c1cn(CCCCF)c2ccccc12)C(C)(C)C (stereo not drawn) = 104

Let me know recorded Emax for COC(=O)C(NC(=O)c1cn(CC2CCCCC2)c2ccccc12)C(C)(C)C (stereo not drawn) , thanks. 103

Give recorded Emax. CCCCCn1cc(C(=O)c2ccc(CC)c3ccccc23)c2ccccc21 93.4
